From: patent US7250397B2

Tested on: CHO cells
Test: In situ binding of [125I]AAP10 on intact CHO cells
Conditions: overnight at 4° C.
recorded-metric: pIC50
Note: pIC50 values are expressed as the negative base-10 logarithm of concentration in M.

-- ask // Input: ASAL(mono-iodo)-Pro-Hyp-Gly-Ala-Gly-NH2 [Compound 32] . Output its pIC50 only.
-- reply 9.30
